The reported numbers originate from patent US20250197387A1.

Target: BCL-XL (Homo sapiens, UniProt Q07817)
Construct: endogenous in cells; host or cells: MOLT-4
Sequence (Q07817 whole entry): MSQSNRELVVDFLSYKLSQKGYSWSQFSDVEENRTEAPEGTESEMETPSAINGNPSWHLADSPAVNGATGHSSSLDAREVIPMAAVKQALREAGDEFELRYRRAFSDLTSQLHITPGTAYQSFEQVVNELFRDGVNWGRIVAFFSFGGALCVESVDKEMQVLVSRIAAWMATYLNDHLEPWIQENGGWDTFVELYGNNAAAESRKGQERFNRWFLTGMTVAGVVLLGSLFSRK
Experiment: Bcl-xL ELISA degradation in MOLT-4 cells, 6 h
Assay type: cell-based
MEASURE_NAME: Dmax

Some compounds with known Dmax results, for comparison:
- ITEM_SMILES: "Cc1ncsc1-c1ccc([C@H](C)NC(=O)[C@@H]2C[C@@H](O)CN2C(=O)[C@@H](NC(=O)CCCCCCS(=O)(=O)NC(=O)c2nc(N3CCc4cccc(C(=O)Nc5nc6ccccc6s5)c4C3)ccc2-c2cnn(CC3CCCCC3)c2C)C(C)(C)C)cc1"
  Dmax: "> 75%"
- ITEM_SMILES: "C#Cc1ccc(CNC(=O)[C@@H]2C[C@@H](O)CN2C(=O)[C@@H](NC(=O)CCCCCS(=O)(=O)NC(=O)c2nc(N(C)c3cc(C)c(Nc4nc5cccnc5s4)nn3)ccc2-c2cnn(CC34CC5CC(CC(C5)C3)C4)c2C)C(C)(C)C)cc1"
  Dmax: "> 75%"
- ITEM_SMILES: "Cc1cc([C@@H](C(=O)N2C[C@H](O)C[C@H]2C(=O)NCc2ccc(-c3scnc3C)cc2OCCN2CCN(C(=O)c3nc(N4CCc5cccc(C(=O)Nc6nc7ccccc7s6)c5C4)ccc3-c3cnn(CC4CCCCC4)c3C)CC2)C(C)C)on1"
  Dmax: "< 50%"
- ITEM_SMILES: "Cc1cc(N(C)c2ccc(-c3cnn(CC45CC6CC(CC(C6)C4)C5)c3C)c(C(=O)NS(=O)(=O)CCCC(=O)N[C@H](C(=O)N3C[C@H](O)C[C@H]3C(=O)N[C@@H](C)c3ccc(-c4scnc4C)cc3)C(C)(C)C)n2)nnc1Nc1nc2ccccc2s1"
  Dmax: "> 75%"
- ITEM_SMILES: "Cc1ncsc1-c1ccc([C@H](C)NC(=O)[C@@H]2C[C@@H](O)CN2C(=O)[C@@H](NC(=O)N2CCN(c3ccc(S(=O)(=O)NC(=O)c4nc(N5CCc6cccc(C(=O)Nc7nc8ccccc8s7)c6C5)ccc4-c4cnn(CC5CCCCC5)c4C)cc3)CC2)C(C)(C)C)cc1"
  Dmax: "> 75%"
- ITEM_SMILES: "Cc1ncsc1-c1ccc([C@H](C)NC(=O)[C@@H]2C[C@@H](O)CN2C(=O)[C@@H](NC(=O)CCc2ccc(S(=O)(=O)NC(=O)c3nc(N4CCc5cccc(C(=O)Nc6nc7ccccc7s6)c5C4)ccc3-c3cnn(CC4CCCCC4)c3C)cc2)C(C)(C)C)cc1"
  Dmax: "> 75%"

Sample C#Cc1ccc([C@H](C)NC(=O)[C@@H]2C[C@@H](O)CN2C(=O)[C@@H](NC(=O)CCCCCS(=O)(=O)NC(=O)c2nc(N(C)c3cc(C)c(Nc4nc5ccccc5s4)nn3)ccc2-c2cnn(CC34CC5CC(CC(C5)C3)C4)c2C)C(C)(C)C)cc1 — what was its Dmax?
> 75%

Entry C#Cc1ccc([C@H](CO)NC(=O)[C@@H]2C[C@@H](O)CN2C(=O)[C@@H](NC(=O)CCNCCS(=O)(=O)NC(=O)c2nc(N3CCc4cccc(C(=O)Nc5nc6cccnc6s5)c4C3)ccc2-c2cnn(CC3CCCCC3)c2C)C(C)(C)C)cc1 : reported Dmax = ?
> 75%

Which Dmax value belongs to Cc1ncsc1-c1ccc(CNC(=O)[C@@H]2C[C@@H](O)CN2C(=O)[C@@H](NC(=O)C2(F)CC2)C(C)(C)C)c(N2CCC(N3CCC(NC(=O)c4nc(N5CCc6cccc(C(=O)Nc7nc8ccccc8s7)c6C5)ccc4-c4cnn(CC5CCCCC5)c4C)CC3)CC2)c1 ?
< 50%

So what's the measured Dmax for this one? C#Cc1ccc(CNC(=O)[C@@H]2C[C@@H](O)CN2C(=O)[C@H](c2cc(N3CCN(c4ccc(S(=O)(=O)NC(=O)c5nc(N6CCc7cccc(C(=O)Nc8nc9ccccc9s8)c7C6)ccc5-c5cnn(CC6CCCCC6)c5C)cc4)CC3)no2)C(C)C)cc1
50 to 75%

What does the data say about its Dmax? Entry: C#Cc1ccc(CNC(=O)[C@@H]2C[C@@H](O)CN2C(=O)[C@@H](NC(=O)CCCCS(=O)(=O)NC(=O)c2nc(N(C)c3cc(C)c(Nc4nc5ccccc5s4)nn3)ccc2-c2cnn(CC34CC5CC(CC(C5)C3)C4)c2C)C(C)(C)C)cc1
> 75%

So what does the record say about Dmax for Cc1ncsc1-c1ccc([C@H](C)NC(=O)[C@@H]2C[C@@H](O)CN2C(=O)[C@@H](NC(=O)COCCN2CCC(S(=O)(=O)NC(=O)c3nc(N4CCc5cccc(C(=O)Nc6nc7ccccc7s6)c5C4)ccc3-c3cnn(CC4CCCCC4)c3C)CC2)C(C)(C)C)cc1 ?
50 to 75%

---

Listing: Dmax of selected compounds
Target: BCL-XL (Homo sapiens)
Construct: endogenous in cells; host or cells: MOLT-4
Assay: BCL-XL degradation assay, western blot in MOLT-4 cells, 16 h
Assay type: cell-based
Conditions: western blot, MOLT-4 cells, 16 h; read-out: Bcl-xL WB in MOLT-4 degradation 16 h: Average Dmax %

- COMPOUND: "Cc1cc(N(CCN(C)C(=O)CCCCCC(=O)N[C@H](C(=O)N2C[C@H](O)C[C@H]2C(=O)N[C@@H](C)c2ccc(-c3scnc3C)cc2)C(C)(C)C)c2ccc(-c3cnn(CC4CCCCC4)c3C)c(C(=O)O)n2)nnc1Nc1nc2ccccc2s1 [I-100]"
  SYSTEM_UNDER_TEST: "BCL-XL (Homo sapiens)"
  Dmax: "50 to 75%"

Now for a further compound.
Please report the recorded Dmax for Cc1ncsc1-c1ccc([C@H](C)NC(=O)[C@@H]2C[C@@H](O)CN2C(=O)[C@@H](NC(=O)CCCC(=O)N(C)CCCc2cccc(F)c2OCCCc2sc(N3CCc4cccc(C(=O)Nc5nc6ccccc6s5)c4C3)nc2C(=O)O)C(C)(C)C)cc1 [I-9] .
> 75%

---

Target: BCL-XL (Homo sapiens, UniProt Q07817)
Construct: endogenous in cells; host or cells: MOLT-4
Assay: Bcl-xL ELISA degradation in MOLT-4 cells, 6 h
Format: cell-based
Conditions: read-out: Bcl-xL ELISA in MOLT-4 degradation 6 h: Mean external-Abs DC50
MEASURE_NAME: DC50

Below are worked cases with known answers.
- MOLECULE: "CCC(CC)Cn1ncc(-c2ccc(N3CCc4cccc(C(=O)Nc5nc6ccccc6s5)c4C3)nc2C(=O)NS(=O)(=O)c2ccc(N3CCC(C(=O)N[C@H](C(=O)N4C[C@H](O)C[C@H]4C(=O)N[C@@H](C)c4ccc(-c5scnc5C)cc4)C(C)(C)C)CC3)cc2)c1C"
  MEASURE_NAME: "DC50"
  REPORTED_MEASUREMENT: "< 0.01 µM"
- MOLECULE: "Cc1ncsc1-c1ccc([C@H](C)NC(=O)[C@@H]2C[C@@H](O)CN2C(=O)[C@@H](NC(=O)Cc2ccc(S(=O)(=O)NC(=O)c3nc(N4CCc5cccc(C(=O)Nc6nc7ccccc7s6)c5C4)ccc3-c3cnn(CC4CCCCC4)c3C)cc2)C(C)(C)C)cc1"
  MEASURE_NAME: "DC50"
  REPORTED_MEASUREMENT: "0.01 to 0.1 µM"
- MOLECULE: "C#Cc1ccc([C@H](CO)NC(=O)[C@@H]2C[C@@H](O)CN2C(=O)[C@@H](NC(=O)CCc2ccc(S(=O)(=O)NC(=O)c3nc(N(C)c4cc(C)c(Nc5nc6ccccc6s5)nn4)ccc3-c3cnn(CC4CCCCC4)c3C)cc2)C(C)(C)C)cc1"
  MEASURE_NAME: "DC50"
  REPORTED_MEASUREMENT: "0.01 to 0.1 µM"
- MOLECULE: "C#Cc1ccc(CNC(=O)[C@@H]2C[C@@H](O)CN2C(=O)[C@@H](NC(=O)CCNCCS(=O)(=O)NC(=O)c2nc(N(C)c3cc(C)c(Nc4nc5ccccc5s4)nn3)ccc2-c2cnn(CC34CC5CC(CC(C5)C3)C4)c2C)C(C)(C)C)cc1"
  MEASURE_NAME: "DC50"
  REPORTED_MEASUREMENT: "0.01 to 0.1 µM"
- MOLECULE: "Cc1ncsc1-c1ccc(CNC(=O)[C@@H]2C[C@@H](O)CN2C(=O)[C@@H](NC(=O)C2(F)CC2)C(C)(C)C)c(OCCCN(C)CC[C@H](CSc2ccccc2)Nc2ccc(S(=O)(=O)NC(=O)c3ccc(N4CCN(CC5=C(c6ccc(Cl)cc6)CCC(C)(C)C5)CC4)cc3)cc2S(=O)(=O)C(F)(F)F)c1"
  MEASURE_NAME: "DC50"
  REPORTED_MEASUREMENT: "0.1 to 0.5 µM"

Fill blank: measured DC50 of the molecule Cc1ncsc1-c1ccc([C@H](C)NC(=O)[C@@H]2C[C@@H](O)CN2C(=O)[C@@H](NC(=O)C2CCN(c3ccc(S(=O)(=O)NC(=O)c4nc(N5CCc6cccc(C(=O)Nc7nc8ccccc8s7)c6C5)ccc4-c4cnn(CC5(OCCO)CCCCC5)c4C)cc3)CC2)C(C)(C)C)cc1 is ____.
0.01 to 0.1 µM

Which DC50 value belongs to Cc1ncsc1-c1ccc([C@H](C)NC(=O)[C@@H]2C[C@@H](O)CN2C(=O)C(c2cc(OC3CCN(CCNC(=O)c4nc(N5CCc6cccc(C(=O)Nc7nc8ccccc8s7)c6C5)ccc4-c4cnn(CC5CCCCC5)c4C)CC3)no2)C(C)C)cc1 (some centres unmarked) ?
> 1 µM

Consider the molecule shown here: Cc1ncsc1-c1ccc([C@H](C)NC(=O)[C@@H]2C[C@@H](O)CN2C(=O)[C@@H](c2cc(OCC3CCN(CCNC(=O)c4nc(N5CCc6cccc(C(=O)Nc7nc8ccccc8s7)c6C5)ccc4-c4cnn(CC5CCCCC5)c4C)CC3)no2)C(C)C)cc1 What is its recorded DC50?
0.01 to 0.1 µM
